test-target: human recombinant Glo-I enzyme (rhGlo-I) (Homo sapiens)
Construct: N-terminal Met and 6-His tag (N); purchased R&D Systems; host or cells: E. coli
Sequence (Q04760 2-184 limits assumed): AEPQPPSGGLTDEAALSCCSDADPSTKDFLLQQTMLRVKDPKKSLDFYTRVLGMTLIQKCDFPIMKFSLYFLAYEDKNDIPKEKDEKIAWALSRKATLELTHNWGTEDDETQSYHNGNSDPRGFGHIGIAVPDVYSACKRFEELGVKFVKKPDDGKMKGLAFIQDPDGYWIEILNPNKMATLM
protocol-summary: Glyoxalase-I (Glo-I) enzyme inhibition assay
Format: biochemical
reported-conditions: 6.25 µM; read-out: Trial two (%inhibtion)
measured-property: inhibition at 6.25 µM (%)

Illustrative cases are given below, each with its answer.
C[C@]12CC[C@@H]3c4ccc(O)c(O)c4CC[C@H]3[C@@H]1CC[C@@H]2O [4-hydroxy-estradiol] = 97.7
O=c1cc(O)cc(/C=C/c2ccc(O)c(O)c2)o1 = 10
O=C1c2ccc(O)c(O)c2C(=O)c2c(O)ccc(O)c21 = 28.6

(P) Cc1ccc(C(=O)c2cc(O)c(O)c([N+](=O)[O-])c2)cc1 [Tolcapone, reference compound]
(Q) CC(/C=C/C(=O)NO)=C\[C@@H](C)C(=O)c1ccc(N(C)C)cc1 [Trichostatin A, reference compound]
(R) O=C(/C=C/c1ccc(O)c(O)c1)O[C@H]1[C@H](O)[C@@H](O)[C@H](OCCc2ccc(O)c(O)c2)O[C@@H]1CO [Calceolarioside A]
Sort by inhibition at 6.25 µM, descending. // respond by listing labels in the order requested P, Q, R
